Hi there, I'd appreciate the recorded self-cleavage for every entry that follows.
B1: Hairpin Ribozyme (parent)
chain: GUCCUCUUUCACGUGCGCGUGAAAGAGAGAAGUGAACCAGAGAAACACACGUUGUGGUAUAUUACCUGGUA

variants of: B1; experiment: self-cleavage, relative activity (ratio to wild type); higher = more cleavage; co-transcriptional
One number for each entry.

{"columns": ["Variant spec", "self-cleavage"],
 "data": [
  ["U14G C50G", 0.2],
  ["G1A G21C", 0.119],
  ["G1U U63A", 0.215],
  ["A23U G40C", 0.1],
  ["G21A U53C", 0.739]
]}

# batch: return self-cleavage for each of the 8 variants below
1. A39G A45C
2. G19A A45U
3. A28U A35U
4. U20C C50U
5. G34A A64U
6. A43C U58A
7. A36G G68A
8. C4G A11C

1: 0.122; 2: 0.1; 3: 0.505; 4: 0.476; 5: 0.125; 6: 0.174; 7: 0.306; 8: 0.113

# batch: return self-cleavage for each of the 2 variants below
1. C10A A30C
2. A47U A64U

0.122
0.123

# batch: return self-cleavage for each of the 4 variants below
1. C46G U63A
2. G19C A39G
3. U55G C65U
4. G21A A49G

1: 0.279; 2: 0.28; 3: 0.0906; 4: 0.469
